Tested on: KM12
Experiment: NCI tumour cell line growth inhibition, 48 h
Calls of active or inactive are those of the source. Rule as the data show it: active = GI50 up to about 1.1 µM and inactive = higher.
# valid calls are True = active, False = inactive; nothing else

COc1cc(C2C3=C(COC3=O)Oc3cc4c(cc32)OCO4)cc(OC)c1OC(C)=O (stereo unspecified) ... True
CCC(=O)C(C)C1=Nc2nnc(CCCCCCCc3nnc4n3C(=O)C(C(C)C(=O)CC)=N4)n2C1=O (stereo unspecified) ... False
O=C1NC(NCc2ccc(F)cc2)=N/C1=C\c1ccccc1Cl ... False

Query string: Any idea what this test logged for O=C(O)CN1CCN2CCOCCN(CC1)CCN(CC(=O)O)CC2 ?
Result string: False

Query string: How did this test come out for Cc1c2ccnc(O)c2cc2c(=O)c3cnccc3[nH]c12 ?
Result string: False
